Data origin: patent US7414047B2

- TARGET UNDER TEST: human histamine H3 receptor (Homo sapiens, UniProt Q9Y5N1)
- Construct: One microgram of supercoiled H3 receptor cDNA was added to the cells and mixed; expressed in transfected cells; membranes prepared from cell pellets
- Sequence (Q9Y5N1 whole entry): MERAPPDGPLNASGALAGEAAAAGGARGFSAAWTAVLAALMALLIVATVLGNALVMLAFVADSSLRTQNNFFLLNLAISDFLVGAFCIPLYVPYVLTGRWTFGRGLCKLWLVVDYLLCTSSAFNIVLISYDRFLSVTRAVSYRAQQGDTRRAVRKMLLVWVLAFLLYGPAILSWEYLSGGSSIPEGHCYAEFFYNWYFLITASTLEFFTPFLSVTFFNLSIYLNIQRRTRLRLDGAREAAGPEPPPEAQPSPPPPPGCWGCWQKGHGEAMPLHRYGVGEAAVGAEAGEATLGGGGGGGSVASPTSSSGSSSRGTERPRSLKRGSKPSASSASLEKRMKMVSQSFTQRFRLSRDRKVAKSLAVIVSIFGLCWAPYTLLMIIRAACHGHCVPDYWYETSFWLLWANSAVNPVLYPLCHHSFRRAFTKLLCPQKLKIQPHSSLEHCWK
- PROTOCOL DETAILS: {3H}-N-methylhistamine binding
Where a name gives a salt, the structure may show the parent alone.
ASSAY ENDPOINT: pKi
When answering, recall that pKi equals minus log10 of the concentration in mol/L, and write that number alone.

Task: Provide the documented pKi with human histamine H3 receptor (Homo sapiens, UniProt Q9Y5N1) as the system for `CCC(CC)N1CCN(C(=O)c2ccc(CN3CCCC3)cc2)CC1`
Result: 9.05

Task: Hi! What's the reported pKi for CC(C)N1CCN(C(=O)c2ccc(CN3CCCC3)cc2)CC1 [Example 61, dihydrochloride] on human histamine H3 receptor (Homo sapiens, UniProt Q9Y5N1)?
Result: 9.00

Task: Lab note: need pKi for CCC(C)N1CCN(C(=O)c2ccc(CN3CCCCCC3)cc2)CC1 (centres unmarked) on human histamine H3 receptor (Homo sapiens, UniProt Q9Y5N1), anyone have it?
Result: 9.05

Task: Value wanted: pKi (human histamine H3 receptor (Homo sapiens, UniProt Q9Y5N1)) of entry CC(C)N1CCN(C(=O)c2ccc(CNc3ccc(C(F)(F)F)cn3)cc2)CC1 [Example 55, dihydrochloride]
Result: 7.31

Task: Quick check: pKi on human histamine H3 receptor (Homo sapiens, UniProt Q9Y5N1), item `CCCCN1CCN(C(=O)c2ccc(CN3CCOCC3)cc2)CC1` ?
Result: 8.05

Task: Notebook entry, human histamine H3 receptor (Homo sapiens, UniProt Q9Y5N1) assay: pKi of CCC(C)N1CCN(C(=O)c2ccc(CN3CCOCC3)cc2)CC1 (centres unmarked) [Example 51, dihydrochloride] = ?
Result: 8.70

Task: # query: pKi | item `CCN(CCOC)Cc1ccc(C(=O)N2CCN(C(C)C)CC2)cc1` | system: human histamine H3 receptor (Homo sapiens, UniProt Q9Y5N1)
Result: 8.52

Task: State its pKi on human histamine H3 receptor (Homo sapiens, UniProt Q9Y5N1): CN1CCN(C(=O)c2ccc(CN3CCCCC3)cc2)CC1 [Example 54, dihydrochloride]
Result: 7.62

Task: So what pKi did CCCCCCC(C)N1CCN(C(=O)c2ccc(CN3CCOCC3)cc2)CC1 (centres unmarked) get with human histamine H3 receptor (Homo sapiens, UniProt Q9Y5N1)?
Result: 6.89

Task: Missing value: pKi, human histamine H3 receptor (Homo sapiens, UniProt Q9Y5N1), entry `CC(C)N1CCN(C(=O)c2ccc(CN3CCSCC3)cc2)CC1` . Fill in?
Result: 8.70

Task: Quick check: pKi on human histamine H3 receptor (Homo sapiens, UniProt Q9Y5N1), item CCC(C)N1CCN(C(=O)c2ccc(CN3CCCC(C(F)(F)F)C3)cc2)CC1 (centres unmarked) [Example 50, dihydrochloride] ?
Result: 7.52

Task: Find pKi (human histamine H3 receptor (Homo sapiens, UniProt Q9Y5N1)) for the entry CC(C)N1CCN(C(=O)c2ccc(CNc3ccccc3)cc2)CC1 [Example 59, dihydrochloride]
Result: 7.64

Task: Record lookup: for human histamine H3 receptor (Homo sapiens, UniProt Q9Y5N1), what pKi belongs to `CCCCN1CCN(C(=O)c2ccc(CN(C)C)cc2)CC1` ?
Result: 7.74

Task: Look up pKi with human histamine H3 receptor (Homo sapiens, UniProt Q9Y5N1) for this molecule: CCC(CC)N1CCN(C(=O)c2ccc(CN3CCOCC3)cc2)CC1 [Example 48, dihydrochloride]
Result: 9.00

Task: Give the reported pKi for `CC(C)N1CCN(C(=O)c2ccc(CN3CCOCC3)cc2)CC1` (system: human histamine H3 receptor (Homo sapiens, UniProt Q9Y5N1)).
Result: 8.52

Task: Under human histamine H3 receptor (Homo sapiens, UniProt Q9Y5N1): pKi value of `CC(C)N1CCN(C(=O)c2ccc(CNc3ccccn3)cc2)CC1` ?
Result: 8.40

Task: Observed pKi on human histamine H3 receptor (Homo sapiens, UniProt Q9Y5N1) for `CCC(CC)N1CCN(C(=O)c2ccc(CN3CCCCC3)cc2)CC1` , please.
Result: 9.40
